assayedSystem: Cholecystokinin receptor type A (Homo sapiens, UniProt P32238)
Sequence (P32238 whole entry): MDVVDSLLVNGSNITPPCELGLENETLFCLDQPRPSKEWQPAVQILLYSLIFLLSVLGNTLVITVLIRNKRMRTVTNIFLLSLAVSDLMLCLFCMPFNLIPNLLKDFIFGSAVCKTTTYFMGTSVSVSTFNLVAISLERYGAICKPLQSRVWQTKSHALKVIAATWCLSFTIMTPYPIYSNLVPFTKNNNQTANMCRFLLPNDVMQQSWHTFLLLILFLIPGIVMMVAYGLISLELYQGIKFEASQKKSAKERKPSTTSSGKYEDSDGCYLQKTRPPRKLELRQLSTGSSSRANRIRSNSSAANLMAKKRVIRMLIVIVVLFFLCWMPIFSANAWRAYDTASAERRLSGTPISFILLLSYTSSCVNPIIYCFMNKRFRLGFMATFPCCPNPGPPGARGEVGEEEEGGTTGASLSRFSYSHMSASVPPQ
methodNotes: Displacement of [125I]-CCK-8 from human CCK1R expressed in human 1321N1 cell membranes after 2 hrs by SPA assay
Numbered stars: 1 amine (or outer) side, 2 acyl side, 3 side chain; on linkers, the order of the positions; unused ones are H or OH. Square brackets hold non-standard residues; d marks the D form. Side chains are listed from the residue outwards. Peptide text beside a SMILES is read from it. * marks the point of attachment. Ala(indol-2-yl) = N[C@@H](Cc1cc2ccccc2[nH]1)C(=O)O; sY = N[C@@H](Cc1ccc(OS(=O)(=O)O)cc1)C(=O)O; C18 diacid = O=C(O)CCCCCCCCCCCCCCCCC(=O)*; γGlu = O=C(O)[C@H](CCC(=O)[*:2])N[*:1]; NMeF = CN[C@@H](Cc1ccccc1)C(=O)O; NMeD = CN[C@@H](CC(=O)O)C(=O)O; Nle = CCCC[C@H](N)C(=O)O; X1 = O=C(Cc1ccc(O)cc1)*; AEEA = NCCOCCOCC(=O)O
testReadout: pIC50
Respond numerically, and do not add a unit to the figure.

Recorded results for 4 molecules are shown here.
1. CCCC[C@H](NC(=O)[C@H](Cc1c[nH]c2ccccc12)NC(=O)CNC(=O)[C@H](CC(C)C)NC(=O)[C@@H](NC(=O)[C@H](CC(=O)O)NC(=O)COCCOCCNC(=O)COCCOCCNC(=O)CC[C@H](NC(=O)CCCCCCCCCCCCCCCCC(=O)O)C(=O)O)[C@@H](C)CC)C(=O)N(C)[C@@H](CC(=O)O)C(=O)N(C)[C@@H](Cc1ccccc1)C(N)=O ({C18 diacid-γGlu-AEEA-AEEA}-DILGW[Nle][NMeD][NMeF]-NH2)    8.37
2. CCCC[C@H](NC(=O)[C@H](Cc1cc2ccccc2[nH]1)NC(=O)CNC(=O)[C@H](CCCCNC(=O)COCCOCCNC(=O)COCCOCCNC(=O)CC[C@H](NC(=O)CCCCCCCCCCCCCCCCC(=O)O)C(=O)O)NC(=O)[C@H](Cc1ccc(OS(=O)(=O)O)cc1)NC(=O)[C@H](CC(=O)O)NC(C)=O)C(=O)N(C)[C@@H](CC(=O)O)C(=O)N(C)[C@@H](Cc1ccccc1)C(N)=O (Ac-D[sY]K([AEEA-AEEA-γGlu-C18 diacid])G[Ala(indol-2-yl)][Nle][NMeD][NMeF]-NH2)    10.19
3. CCCC[C@H](NC(=O)[C@H](Cc1c[nH]c2ccccc12)NC(=O)CNC(=O)[C@@H](CCCNC(=O)COCCOCCNC(=O)COCCOCCNC(=O)CC[C@H](NC(=O)CCCCCCCCCCCCCCCCC(=O)O)C(=O)O)NC(=O)Cc1ccc(O)cc1)C(=O)N(C)[C@H](CC(=O)O)C(=O)N(C)[C@@H](Cc1ccccc1)C(N)=O    9.3
4. CC(C)C[C@H](NC(=O)[C@H](Cc1ccc(OS(=O)(=O)O)cc1)NC(=O)[C@H](CC(=O)O)NC(=O)COCCOCCNC(=O)COCCOCCNC(=O)CC[C@H](NC(=O)CCCCCCCCCCCCCCCCC(=O)O)C(=O)O)C(=O)NCC(=O)N[C@@H](Cc1c[nH]c2ccccc12)C(=O)N[C@@H](Cc1ccccc1)C(=O)N(C)[C@@H](CC(=O)O)C(=O)N(C)[C@@H](Cc1ccccc1)C(N)=O ({C18 diacid-γGlu-AEEA-AEEA}-D[sY]LGWF[NMeD][NMeF]-NH2)    7.79

Look up pIC50 for this molecule: CCCC[C@H](NC(=O)[C@H](Cc1c[nH]c2ccccc12)NC(=O)CNC(=O)[C@H](CC(C)C)NC(=O)[C@H](Cc1ccc(OS(=O)(=O)O)cc1)NC(=O)[C@H](CC(=O)O)NC(=O)COCCOCCNC(=O)COCCOCCNC(=O)CC[C@H](NC(=O)CCCCCCCCCCCCCCCCC(=O)O)C(=O)O)C(=O)N1CCC[C@H]1C(=O)N(C)[C@@H](Cc1ccccc1)C(N)=O ({C18 diacid-γGlu-AEEA-AEEA}-D[sY]LGW[Nle]P[NMeF]-NH2)
7.39

Look up pIC50 for this molecule: CCCC[C@H](NC(=O)[C@H](Cc1c[nH]c2ccccc12)NC(=O)CNC(=O)[C@H](CC(C)C)NC(=O)[C@H](Cc1ccc(O)cc1)NC(=O)[C@H](CC(=O)O)NC(=O)COCCOCCNC(=O)COCCOCCNC(=O)CC[C@H](NC(=O)CCCCCCCCCCCCCCCCC(=O)O)C(=O)O)C(=O)N(C)[C@@H](CC(=O)O)C(=O)N(C)[C@@H](Cc1ccccc1)C(N)=O
8.99

Look up pIC50 for this molecule: CCCC[C@H](NC(=O)[C@H](Cc1c[nH]c2ccccc12)NC(=O)CNC(=O)[C@H](CCCCNC(=O)COCCOCCNC(=O)COCCOCCNC(=O)CC[C@H](NC(=O)CCCCCCCCCCCCCCCCC(=O)O)C(=O)O)NC(=O)Cc1ccc(O)cc1)C(=O)N(C)[C@@H](CC(=O)O)C(=O)N(C)[C@@H](Cc1ccccc1)C(N)=O (X1-K([AEEA-AEEA-γGlu-C18 diacid])GW[Nle][NMeD][NMeF]-NH2)
9.28
